Origin of values: ChEMBL document CHEMBL2177100

# study-system: Receptor tyrosine-protein kinase erbB-2 (Homo sapiens, UniProt P04626)
# Sequence (P04626 whole entry): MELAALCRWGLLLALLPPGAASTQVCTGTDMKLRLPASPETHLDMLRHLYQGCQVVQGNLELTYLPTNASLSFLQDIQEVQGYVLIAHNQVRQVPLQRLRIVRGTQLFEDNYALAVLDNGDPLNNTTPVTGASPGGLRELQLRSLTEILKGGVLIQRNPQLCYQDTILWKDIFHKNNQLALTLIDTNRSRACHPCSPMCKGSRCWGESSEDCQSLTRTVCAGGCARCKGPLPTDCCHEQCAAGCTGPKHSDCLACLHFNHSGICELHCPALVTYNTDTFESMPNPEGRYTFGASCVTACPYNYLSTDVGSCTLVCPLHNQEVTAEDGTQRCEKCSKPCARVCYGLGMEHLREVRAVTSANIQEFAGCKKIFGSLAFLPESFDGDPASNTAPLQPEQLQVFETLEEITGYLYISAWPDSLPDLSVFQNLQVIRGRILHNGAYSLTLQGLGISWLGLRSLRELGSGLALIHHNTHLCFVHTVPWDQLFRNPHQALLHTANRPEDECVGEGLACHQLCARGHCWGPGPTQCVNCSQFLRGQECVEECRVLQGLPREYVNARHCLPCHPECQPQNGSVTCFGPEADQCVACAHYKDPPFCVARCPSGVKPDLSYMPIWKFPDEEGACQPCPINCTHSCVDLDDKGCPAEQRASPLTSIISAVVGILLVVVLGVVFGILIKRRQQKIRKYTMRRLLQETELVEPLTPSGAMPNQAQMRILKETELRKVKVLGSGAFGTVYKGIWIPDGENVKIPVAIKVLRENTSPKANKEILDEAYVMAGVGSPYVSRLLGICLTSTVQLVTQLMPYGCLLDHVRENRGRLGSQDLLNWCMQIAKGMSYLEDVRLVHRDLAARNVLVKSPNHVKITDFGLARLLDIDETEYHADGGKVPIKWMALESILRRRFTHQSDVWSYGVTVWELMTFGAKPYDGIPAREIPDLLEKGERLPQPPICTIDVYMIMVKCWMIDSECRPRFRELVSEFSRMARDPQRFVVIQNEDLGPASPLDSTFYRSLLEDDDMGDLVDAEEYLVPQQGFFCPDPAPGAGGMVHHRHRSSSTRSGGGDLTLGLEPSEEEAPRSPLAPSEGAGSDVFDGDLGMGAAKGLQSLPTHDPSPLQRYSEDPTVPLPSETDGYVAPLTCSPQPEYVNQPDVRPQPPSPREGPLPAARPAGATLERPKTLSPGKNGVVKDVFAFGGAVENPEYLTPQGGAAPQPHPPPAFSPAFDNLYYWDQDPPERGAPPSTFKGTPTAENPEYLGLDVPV
# experimental-details: Inhibition of human recombinant ERBB2 by radiometric kinase assay
readout-type: IC50 (nM)
# unit: nM | format: bare number

Request: Provide IC50, tested on Receptor tyrosine-protein kinase erbB-2 (Homo sapiens, UniProt P04626), for CN1CCN(c2ccc(Nc3ncc4nc(Nc5ccccc5)n(C5CCCC5)c4n3)cc2)CC1 .
Response: 60

###

# study-system: Serine/threonine-protein kinase PLK1 (Homo sapiens)
# Sequence (P53350 whole entry): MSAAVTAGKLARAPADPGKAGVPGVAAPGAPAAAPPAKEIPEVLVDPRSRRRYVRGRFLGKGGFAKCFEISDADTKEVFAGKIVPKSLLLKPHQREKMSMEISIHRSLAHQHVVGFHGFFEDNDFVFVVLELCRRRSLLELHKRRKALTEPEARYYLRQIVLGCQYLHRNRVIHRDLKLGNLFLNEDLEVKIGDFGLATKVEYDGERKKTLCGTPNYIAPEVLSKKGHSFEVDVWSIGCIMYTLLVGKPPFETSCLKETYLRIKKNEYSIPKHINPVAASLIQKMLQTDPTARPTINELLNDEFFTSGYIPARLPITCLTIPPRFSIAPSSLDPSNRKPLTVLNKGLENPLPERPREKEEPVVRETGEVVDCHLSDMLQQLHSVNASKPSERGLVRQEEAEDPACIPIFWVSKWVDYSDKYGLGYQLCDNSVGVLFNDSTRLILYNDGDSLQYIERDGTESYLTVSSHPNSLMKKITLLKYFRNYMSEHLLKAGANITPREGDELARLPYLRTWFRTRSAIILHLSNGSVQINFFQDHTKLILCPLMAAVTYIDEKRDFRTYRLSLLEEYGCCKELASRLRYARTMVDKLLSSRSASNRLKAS
# experimental-details: Inhibition of human recombinant PLK1 by radiometric kinase assay
readout-type: IC50

Request: Provide IC50, tested on Serine/threonine-protein kinase PLK1 (Homo sapiens), for CN1CCN(c2ccc(Nc3ncc4nc(Nc5ccccc5)n(C5CCCC5)c4n3)cc2)CC1 .
Response: > 10 µM
